system: UACC-257 melanoma; assay: NCI tumour cell line growth inhibition, 384-well format; in the data active = GI50 below about 0.43 µM; inactive = the rest
Outcome codes: 1 (yes) for active, 0 (no) for inactive

1. COc1ccc(-c2ccc3ncc4c(c3c2)n(-c2ccc(N3CCNCC3)c(C(F)(F)F)c2)c(=O)n4C)cn1
1 (yes)
2. Cc1cc(C(=O)N[C@@H](CCC(=O)O)C(=O)O)sc1CC[C@@H]1CNc2nc(N)[nH]c(=O)c2C1
1 (yes)
3. Cc1cc(Nc2cc(CN3CCOCC3)c3nc(C)c(Cc4ccc(Cl)cc4F)n3n2)n[nH]1
0 (no)
4. S=c1nc[nH]c2nc[nH]c12
0 (no)

* * *

test system: SNB-19 CNS; assay: NCI tumour cell line growth inhibition, 384-well format; in the data active = GI50 below about 0.43 µM; inactive = the rest
Outcome codes: y = active, n = inactive

1) COc1ccc(-c2ccc3ncc4c(c3c2)n(-c2ccc(N3CCNCC3)c(C(F)(F)F)c2)c(=O)n4C)cn1
y
2) Cc1cc(Nc2cc(CN3CCOCC3)c3nc(C)c(Cc4ccc(Cl)cc4F)n3n2)n[nH]1
n
3) Cc1cc(C(=O)N[C@@H](CCC(=O)O)C(=O)O)sc1CC[C@@H]1CNc2nc(N)[nH]c(=O)c2C1
y
4) S=c1nc[nH]c2nc[nH]c12
n
